Source listed as patent US20210130452A1.

Target: T1, human IL-17A (human, UniProt Q16552 24-155, biotinylated with Sulfo-NHS-LC-Biotin in the AlphaScreen assays only)
T1 construct: also called hIL-17A; recombinant human IL-17A
T1 sequence (Q16552 other isoform, or with tags, fused parts or gaps): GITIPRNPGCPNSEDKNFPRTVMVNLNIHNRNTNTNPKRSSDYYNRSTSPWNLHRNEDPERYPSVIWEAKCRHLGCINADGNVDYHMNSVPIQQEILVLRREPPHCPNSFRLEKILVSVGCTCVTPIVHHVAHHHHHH
Assay: AlphaScreen competition, hIL-17A - IL-17RC-Fc;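 also: Read-out after 1 h at room temperature with the receptor Fc-fusion, Acceptor beads and streptavidin-coated Donor beads present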
measured.attribute: IC50 (nM)
# value in nM; strip the unit string

Worked cases, answers included:
{"binder": "11C08 (VHH, Class 4 Nanobody (cross-reactive: anti-IL-17A, IL-17F and IL-17A/F); not shown: c-myc, His6 tag) VHH: EVQLVESGGGLVQAGGSLRLSCAASGVIFRLNAMGWYRAAPGKQRELVAIIVNGGSTNYADSVKGRFTISRDSAKNAVYLQMNSLKPEDTAVYYCYYNIPGDVYWGQGTQVTVSS", "IC50, nM": 4.8}
{"binder": "01D06 (VHH, Class 2 Nanobody (anti-IL-17A and IL-17A/F); not shown: c-myc, His6 tag) VHH: EVQLVESGGGLVQAGGSLRLSCAADGRTFSTYGMTWFRQVPGKEREFVAHIPRSTYSPYYANSVKGRFTIARDDAKSTVYLQMNSLKPEDTAVYYCAVFTGGTYYVPTAYDYWGQGTQVTVSS", "IC50, nM": 1.52}
{"binder": "02E03 (VHH, Class 1 Nanobody (anti-IL-17A); not shown: c-myc, His6 tag) VHH: EVQLVESGGGLVQPGGSLRLSCAASGFTFSSYAMSWARQAPGEGLEWVSDINSGGTRTTYADSVKGRFTISRDNAKNTLYLQMNSLKPEDTAVYVCAKLSVFRSQLGGKYYGGDYENRGQGTQVTVSS", "IC50, nM": 0.778}
{"binder": "04A02 (VHH, Class 2 Nanobody (anti-IL-17A and IL-17A/F); not shown: c-myc, His6 tag) VHH: EVQLVESGGGLVQPGGSLRLSCAASRNINIINYMAWYRQAPGNQRELVAAMTSDATTEYADSVKGRFTISRDIPENTVYLQMNSLKPEDTAVYYCNAKGIWDYLGRRDFGDYWGQGTQVTVSS", "IC50, nM": 0.837}
{"binder": "01D02 (VHH, Class 1 Nanobody (anti-IL-17A); not shown: c-myc, His6 tag) VHH: EVQLVESGGGLVQAGGSLRLSCAASGLSFSSYALGWFRQAPGKERDFVAAINWSGDNTHYADSVKGRFTISRDNAKNTVSLQMNSLKPEDTAVYYCAAQLGYESGYSLTYDYDYWGQGTQVTVSS", "IC50, nM": 0.363}

Below: the item to evaluate.
Consider the binder 09G10 (VHH, Class 2 Nanobody (anti-IL-17A and IL-17A/F); not shown: c-myc, His6 tag) VHH: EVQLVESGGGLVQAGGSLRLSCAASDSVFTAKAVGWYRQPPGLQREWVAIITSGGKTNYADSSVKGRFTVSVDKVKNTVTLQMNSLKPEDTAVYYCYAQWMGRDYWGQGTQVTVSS and give its measured IC50. 0.323
